# Target Of Assay: KRAS-G12D protein (Homo sapiens, UniProt P01116, G12D)
# Sequence (P01116 1-188 isoform P01116-2 G12D): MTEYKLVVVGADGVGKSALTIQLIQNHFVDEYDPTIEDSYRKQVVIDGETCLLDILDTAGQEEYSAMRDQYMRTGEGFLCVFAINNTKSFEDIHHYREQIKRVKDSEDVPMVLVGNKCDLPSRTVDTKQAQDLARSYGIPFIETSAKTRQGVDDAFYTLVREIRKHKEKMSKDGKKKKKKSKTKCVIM
# Method Summary: SOS-mediated nucleotide exchange assay (BODIPY-GDP / Tb-streptavidin TR-FRET)
# Type: biochemical
pEC50: −log10 of the molar value. *1 amine or outer side, *2 acyl side, *3 side chain or, on linkers, in order; H or OH if unused. Where a SMILES comes first, the peptide text is derived from it. Bridges are numbered along the chain shown (N, C = ends). [ ]: non-standard residue; d: D form. NMeNva(5-imidazol-1-yl) = CN[C@@H](CCCn1ccnc1)C(=O)O; Phe(4-CH2NH2) = NCc1ccc(C[C@H](N)C(=O)O)cc1; Leu(4,5-dehydro) = C=C(C)C[C@H](N)C(=O)O; 1Nal = N[C@@H](Cc1cccc2ccccc12)C(=O)O; Phe(2-F) = N[C@@H](Cc1ccccc1F)C(=O)O; NMe3Pal = CN[C@@H](Cc1cccnc1)C(=O)O; X1 = O=C(C12CC(CN[*:1])(C1)C2)[*:2]; NMeF = CN[C@@H](Cc1ccccc1)C(=O)O; 3Pal = N[C@@H](Cc1cccnc1)C(=O)O; d3Pal = N[C@H](Cc1cccnc1)C(=O)O; d(αMeC) = C[C@@](N)(CS)C(=O)O; Ahp(2) = CCCCC[C@H](N)C(=O)O; Cba = N[C@@H](CC1CCC1)C(=O)O; X64 = O=C(C#CCN[*:1])[*:2]; αMeC = C[C@](N)(CS)C(=O)O; Nle = CCCC[C@H](N)C(=O)O; AEEA = NCCOCCOCC(=O)O
Outcome Measure: pEC50

- Compound: "CCCCC[C@@H]1NC(=O)[C@H](Cc2ccc(OC)cc2)NC(=O)[C@H](CC2CCC2)NC(=O)[C@H](Cc2ccc(=O)[nH]c2)NC(=O)[C@H](CCCNC(=N)N)NC(=O)[C@H](Cc2ccccc2)NC(=O)CSC[C@@](C)(C(N)=O)NC(=O)[C@H](Cc2ccccc2)N(C)C1=O"
  Target Of Assay: "KRAS-G12D protein (Homo sapiens, UniProt P01116, G12D)"
  Assay Value: 7.71
- Compound: "CCCC[C@@H]1NC(=O)[C@H](Cc2ccccc2F)NC(=O)[C@H](CC2CCC2)NC(=O)[C@@H](Cc2cccnc2)NC(=O)[C@H](CCCNC(=N)N)NC(=O)[C@H](Cc2ccccc2)NC(=O)C#CCNC(=O)[C@H](Cc2cccnc2)N(C)C1=O [compound 104] (cyclo(FR[d3Pal][Cba][Phe(2-F)][Nle][NMe3Pal][X64]))"
  Target Of Assay: "KRAS-G12D protein (Homo sapiens, UniProt P01116, G12D)"
  Assay Value: 6.41
- Compound: "CCCC[C@@H]1NC(=O)[C@H](Cc2cccnc2)NC(=O)[C@H](CCCn2ccnc2)N(C)C(=O)[C@H](Cc2ccccc2)N(C)C(=O)C23CC(CNC(=O)[C@H](Cc4cccnc4)N(C)C(=O)[C@H](CCCC)NC(=O)[C@H](Cc4ccccc4F)NC1=O)(C2)C3 [compound 264] (cyclo([3Pal][Nle][Phe(2-F)][Nle][NMe3Pal][X1][NMeF][NMeNva(5-imidazol-1-yl)]))"
  Target Of Assay: "KRAS-G12D protein (Homo sapiens, UniProt P01116, G12D)"
  Assay Value: 5.39
- Compound: "CCCCC[C@@H]1NC(=O)[C@H](Cc2ccc(O)cc2)NC(=O)[C@H](CC(C)C)NC(=O)[C@H](Cc2ccc(O)cc2)NC(=O)[C@H](CCCNC(=N)N)NC(=O)[C@H](Cc2ccccc2)NC(=O)CSC[C@@H](C(=O)NCCOCCOCC(=O)NCCOCCOCC(N)=O)NC(=O)[C@H](Cc2ccccc2)N(C)C1=O [compound 58, cyclo(F-R-Y-L-Y-Ahp-NMeF-C4-ClAc)] ({CH2CO}-FRYLY[Ahp(2)][NMeF]C[AEEA][AEEA]-NH2; thioether N-8)"
  Target Of Assay: "KRAS-G12D protein (Homo sapiens, UniProt P01116, G12D)"
  Assay Value: 6.36
- Compound: "CCCC[C@@H]1NC(=O)[C@H](Cc2ccc(CNC(C)=O)cc2)NC(=O)[C@H](CCCNC(=N)N)NC(=O)[C@H](Cc2cccc3ccccc23)NC(=O)CSC[C@](C)(C(=O)O)NC(=O)[C@H](Cc2ccccc2)N(C)C(=O)[C@H](CCCC)NC(=O)[C@H](Cc2ccc(O)cc2)NC1=O [compound 145] ({CH2CO}-[1Nal]R[Phe(4-CH2NH2)](Ac)[Nle]Y[Nle][NMeF][d(αMeC)]-OH; thioether N-8)"
  Target Of Assay: "KRAS-G12D protein (Homo sapiens, UniProt P01116, G12D)"
  Assay Value: 5.15
- Compound: "C=C(C)C[C@@H]1NC(=O)[C@H](CCCC)NC(=O)[C@H](Cc2cccnc2)NC(=O)[C@H](CCCNC(=N)N)NC(=O)[C@H](Cc2ccccc2)NC(=O)CSC[C@@](C)(C(N)=O)NC(=O)[C@H](Cc2cccnc2)N(C)C(=O)[C@H](CCCC)NC1=O [compound 44] ({CH2CO}-FR[3Pal][Nle][Leu(4,5-dehydro)][Nle][NMe3Pal][αMeC]-NH2; thioether N-8)"
  Target Of Assay: "KRAS-G12D protein (Homo sapiens, UniProt P01116, G12D)"
  Assay Value: 6.28

* * *

# maps each entry to its pEC50
# Target Of Assay: KRAS-G12D protein (Homo sapiens, UniProt P01116, G12D)
# Method Summary: SOS-mediated nucleotide exchange assay (BODIPY-GDP / Tb-streptavidin TR-FRET)
# Assay type: biochemical
pEC50: −log10 of the molar value. *1 amine or outer side, *2 acyl side, *3 side chain or, on linkers, in order; H or OH if unused. Where a SMILES comes first, the peptide text is derived from it. Bridges are numbered along the chain shown (N, C = ends). [ ]: non-standard residue; d: D form. Phe(4-CH2NH2) = NCc1ccc(C[C@H](N)C(=O)O)cc1; NMeAha = CN[C@@H](CCN=[N+]=[N-])C(=O)O; 1Nal = N[C@@H](Cc1cccc2ccccc12)C(=O)O; Phe(2-F) = N[C@@H](Cc1ccccc1F)C(=O)O; NMe3Pal = CN[C@@H](Cc1cccnc1)C(=O)O; X1 = O=C(C12CC(CN[*:1])(C1)C2)[*:2]; NMeF = CN[C@@H](Cc1ccccc1)C(=O)O; PhLac = O=C(O)[C@@H](O)Cc1ccccc1; 3Pal = N[C@@H](Cc1cccnc1)C(=O)O; d(αMeC) = C[C@@](N)(CS)C(=O)O; Nle = CCCC[C@H](N)C(=O)O

- Compound: "CCCC[C@@H]1NC(=O)[C@H](Cc2cccnc2)NC(=O)[C@H](CCN=[N+]=[N-])N(C)C(=O)[C@H](Cc2ccccc2)OC(=O)C23CC(CNC(=O)[C@H](Cc4cccnc4)N(C)C(=O)[C@H](CCCC)NC(=O)[C@H](Cc4ccccc4F)NC1=O)(C2)C3 [compound 249] (cyclo([3Pal][Nle][Phe(2-F)][Nle][NMe3Pal][X1][PhLac][NMeAha]))"
  pEC50: 7.06
- Compound: "CCCC[C@@H]1NC(=O)[C@H](Cc2ccc(CN)cc2)NC(=O)[C@H](CCCNC(=N)N)NC(=O)[C@H](Cc2cccc3ccccc23)NC(=O)CSC[C@](C)(C(=O)O)NC(=O)[C@H](Cc2ccccc2)N(C)C(=O)[C@H](CCCC)NC(=O)[C@H](Cc2ccc(O)cc2)NC1=O [compound 144] ({CH2CO}-[1Nal]R[Phe(4-CH2NH2)][Nle]Y[Nle][NMeF][d(αMeC)]-OH; thioether N-8)"
  pEC50: 5.84

* * *

# Target Of Assay: KRAS-G12D protein (Homo sapiens, UniProt P01116, G12D)
# Method Summary: SOS-mediated nucleotide exchange assay (BODIPY-GDP / Tb-streptavidin TR-FRET)
# Assay type: biochemical
*1 amine or outer side, *2 acyl side, *3 side chain or, on linkers, in order; H or OH if unused. Where a SMILES comes first, the peptide text is derived from it. [ ]: non-standard residue; d: D form. Ala(pyrimidin-5-yl) = N[C@@H](Cc1cncnc1)C(=O)O; NMe3Pal(5-F) = CN[C@@H](Cc1cncc(F)c1)C(=O)O; X45 = CN([C@@H](Cc1ccncc1F)C(=O)[*:2])[*:1]; Nle(5,5-F2) = CC(F)(F)CC[C@H](N)C(=O)O; X61 = O=C(C12COC(CN[*:1])(C1)C2)[*:2]; Phe(2-F) = N[C@@H](Cc1ccccc1F)C(=O)O; NMe3Pal = CN[C@@H](Cc1cccnc1)C(=O)O; X1 = O=C(C12CC(CN[*:1])(C1)C2)[*:2]; Ala(cPr) = N[C@@H](CC1CC1)C(=O)O; PhLac = O=C(O)[C@@H](O)Cc1ccccc1; 3Pal = N[C@@H](Cc1cccnc1)C(=O)O; d3Pal = N[C@H](Cc1cccnc1)C(=O)O; Cba = N[C@@H](CC1CCC1)C(=O)O; hLeu = CC(C)CC[C@H](N)C(=O)O; NMeA = CN[C@@H](C)C(=O)O; Nle = CCCC[C@H](N)C(=O)O

- Molecule: "C[C@H]1C(=O)N[C@@H](Cc2cccnc2)C(=O)N[C@@H](CC2CCC2)C(=O)N[C@@H](Cc2ccccc2F)C(=O)N[C@@H](CCC(C)(F)F)C(=O)N(C)[C@@H](Cc2cncc(F)c2)C(=O)NCC23CC(C2)(C3)C(=O)O[C@@H](Cc2ccccc2)C(=O)N1C [compound 285] (cyclo([3Pal][Cba][Phe(2-F)][Nle(5,5-F2)][NMe3Pal(5-F)][X1][PhLac][NMeA]))"
  EC50 / nM: 13
- Molecule: "CC(C)CC[C@@H]1NC(=O)[C@H](Cc2ccccc2F)NC(=O)[C@H](CC2CC2)NC(=O)[C@H](Cc2cncnc2)NC(=O)[C@H](C)N(C)C(=O)[C@H](Cc2ccccc2)OC(=O)C23CC(CNC(=O)[C@H](Cc4ccncc4F)N(C)C1=O)(C2)C3 [compound 337] (cyclo([Ala(cPr)][Phe(2-F)][hLeu][X45][X1][PhLac][NMeA][Ala(pyrimidin-5-yl)]))"
  EC50 / nM: 3
- Molecule: "CCCC[C@@H]1NC(=O)[C@H](Cc2ccccc2F)NC(=O)[C@H](CC2CCC2)NC(=O)[C@@H](Cc2cccnc2)NC(=O)[C@H](CCCNC(=N)N)NC(=O)[C@H](Cc2ccccc2)NC(=O)C23COC(CNC(=O)[C@H](Cc4cccnc4)N(C)C1=O)(C2)C3 [compound 106] (cyclo(FR[d3Pal][Cba][Phe(2-F)][Nle][NMe3Pal][X61]))"
  EC50 / nM: 6820
